Numbers sourced from patent US20110086806A1.

Target: T1, recombinant human IL-23R/Fc chimera (R&D Systems) (human, UniProt Q5VWK5 24-355)
T1 construct: Bought; also called rhIL23RFc
T1 sequence (looked up): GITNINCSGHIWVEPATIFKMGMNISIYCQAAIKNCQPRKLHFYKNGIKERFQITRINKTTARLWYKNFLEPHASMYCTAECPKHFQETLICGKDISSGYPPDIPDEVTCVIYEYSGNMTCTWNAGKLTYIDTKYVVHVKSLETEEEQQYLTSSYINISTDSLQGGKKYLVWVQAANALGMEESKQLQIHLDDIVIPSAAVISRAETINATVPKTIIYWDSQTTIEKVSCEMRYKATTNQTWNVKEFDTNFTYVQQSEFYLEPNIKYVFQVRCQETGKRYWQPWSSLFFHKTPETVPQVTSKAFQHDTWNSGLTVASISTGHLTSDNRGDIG
Assay: competition ELISA vs IL-23
OBSERVATION_TYPE: Ratio IC50 to 056-53.H4E IC50

Example results:
105-08-2H2 ATRIMER complex (designed binder) EPPTQKPKKIVNAKKDVVNTKMFEELKSRLDTLAQEVALLKEQQALQTVCLKGTKVHMKCFLAFTQTKTFHEASEDCISRGGTLSTPQTGSENDALYEYLRQSVGNEAEIWLGLNGSPTTDTWVDMTGARIAYKNWETEITAQPDGGWGYFGENCAVLSGAANGKWFDKRCRDQLPYICQFGIV	4
105-08-2G2 ATRIMER complex (designed binder) EPPTQKPKKIVNAKKDVVNTKMFEELKSRLDTLAQEVALLKEQQALQTVCLKGTKVHMKCFLAFTQTKTFHEASEDCISRGGTLSTPQTGSENDALYEYLRQSVGNEAEIWLGLNGSAITDTWVDMTGARIAYKNWETEITAQPDGGWGYFGENCAVLSGAANGKWFDKRCRDQLPYICQFGIV	3.8
105-08-2C11 ATRIMER complex (designed binder) EPPTQKPKKIVNAKKDVVNTKMFEELKSRLDTLAQEVALLKEQQALQTVCLKGTKVHMKCFLAFTQTKTFHEASEDCISRGGTLSTPQTGSENDALYEYLRQSVGNEAEIWLGLNGSLKTQTWVDMTGARIAYKNWETEITAQPDGGWGYFGENCAVLSGAANGKWFDKRCRDQLPYICQFGIV	9.1
105-08-1C4 ATRIMER complex (designed binder, not shown: small tags and cut ends) EPPTQKPKKIVNAKKDVVNTKMFEELKSRLDTLAQEVALLKEQQALQTVCLKGTKVHMKCFLAFTQTKTFHEASEDCISRGGTLSTPQTGSENDALYEYLRQSVGNEAEIWLGLNGSTLTDTWVDMTGARIAYKNWETEITAQPDGGWGYFGENCAVLSGAANGKWFDKRCRDQLPYICQFGIV	3.3
101-80-5H3 ATRIMER complex (designed binder) EPPTQKPKKIVNAKKDVVNTKMFEELKSRLDTLAQEVALLKEQQALQTVCLKGTKVHMKCFLAFTQTKTFHEASEDCISRGGTLSTPQTGSENDALYEYLRQSVGNEAEIWLGLNGSALTNTWVDMTGARIAYKNWEPPAPYHPMAAGVFGENCAVLSGAANGKWFDKRCRDQLPYICQFGIV	11.3

Give Ratio IC50 to 056-53.H4E IC50 for 105-08-2H10 ATRIMER complex (designed binder) EPPTQKPKKIVNAKKDVVNTKMFEELKSRLDTLAQEVALLKEQQALQTVCLKGTKVHMKCFLAFTQTKTFHEASEDCISRGGTLSTPQTGSENDALYEYLRQSVGNEAEIWLGLNGSNHTDTWVDMTGARIAYKNWETEITAQPDGGFGYFGENCAVLSGAANGKWFDKRCRDQLPYICQFGIV
6.5

Give Ratio IC50 to 056-53.H4E IC50 for 105-08-2H11 ATRIMER complex (designed binder, not shown: C-terminal tag: His/Myc (pANA4) or HA-StrepII (pANA10)) EPPTQKPKKIVNAKKDVVNTKMFEELKSRLDTLAQEVALLKEQQALQTVCLKGTKVHMKCFLAFTQTKTFHEASEDCISRGGTLSTPQTGSENDALYEYLRQSVGNEAEIWLGLNGSPRTDTWVDMTGARIAYKNWETEITAQPDGGWGYFGENCAVLSGAANGKWFDKRCRDQLPYICQFGIV
4.3
